Biological target: T1, cynomolgus ROR1 on CHO-K1-cynoROR1 cells (cynomolgus monkey, UniProt A0A2K5WTX7 30-937)
T1 construct: whole, on cells
Assay: flow cytometry, CHO-K1-cynoROR1 cells
Protocol: Binding of recombinant anti-ROR1 antibodies to human or cynomolgus ROR1-overexpressing cells was tested by flow cytometry. […]
One threshold, 30000, splits the recorded Max values: lower ones are T, equal or higher ones are F.

PR005351 (antibody, human IgG1, V domains shown, HCAb (heavy chain-only, human IgG1 Fc), no light chain) VH: QVQLVESGGGLVKPGGSLRLSCAASGFKLSDFQMSWIRQAPGKGLEWVAYIDTNGSTRYYAESVKGRFTLSRDNVKNSLNLQMNGLRAEDTALYYCARIPSYTSSWYEDFDHWGQGTLVTVSS    T

**Q:** In the record for PR005338 (antibody, human IgG1, V domains shown, HCAb (heavy chain-only, human IgG1 Fc), no light chain) VH: EVQLVESGGGLVKPGGSLRLSCAASGFTFSDYYMSWIRQAPGKGLEWISYISSSGTTIHYADSVKGRFTISRDNAKNSLYLQMNSLRTEDTAVYYCARDAPSSNSDWVSLQFDYWGQGTLVTVSS , is Max less than 30000?
**A:** F
